Let's go through some recorded pIC50 values for UniProtKB P08183 together.
Sequence (P08183 whole entry): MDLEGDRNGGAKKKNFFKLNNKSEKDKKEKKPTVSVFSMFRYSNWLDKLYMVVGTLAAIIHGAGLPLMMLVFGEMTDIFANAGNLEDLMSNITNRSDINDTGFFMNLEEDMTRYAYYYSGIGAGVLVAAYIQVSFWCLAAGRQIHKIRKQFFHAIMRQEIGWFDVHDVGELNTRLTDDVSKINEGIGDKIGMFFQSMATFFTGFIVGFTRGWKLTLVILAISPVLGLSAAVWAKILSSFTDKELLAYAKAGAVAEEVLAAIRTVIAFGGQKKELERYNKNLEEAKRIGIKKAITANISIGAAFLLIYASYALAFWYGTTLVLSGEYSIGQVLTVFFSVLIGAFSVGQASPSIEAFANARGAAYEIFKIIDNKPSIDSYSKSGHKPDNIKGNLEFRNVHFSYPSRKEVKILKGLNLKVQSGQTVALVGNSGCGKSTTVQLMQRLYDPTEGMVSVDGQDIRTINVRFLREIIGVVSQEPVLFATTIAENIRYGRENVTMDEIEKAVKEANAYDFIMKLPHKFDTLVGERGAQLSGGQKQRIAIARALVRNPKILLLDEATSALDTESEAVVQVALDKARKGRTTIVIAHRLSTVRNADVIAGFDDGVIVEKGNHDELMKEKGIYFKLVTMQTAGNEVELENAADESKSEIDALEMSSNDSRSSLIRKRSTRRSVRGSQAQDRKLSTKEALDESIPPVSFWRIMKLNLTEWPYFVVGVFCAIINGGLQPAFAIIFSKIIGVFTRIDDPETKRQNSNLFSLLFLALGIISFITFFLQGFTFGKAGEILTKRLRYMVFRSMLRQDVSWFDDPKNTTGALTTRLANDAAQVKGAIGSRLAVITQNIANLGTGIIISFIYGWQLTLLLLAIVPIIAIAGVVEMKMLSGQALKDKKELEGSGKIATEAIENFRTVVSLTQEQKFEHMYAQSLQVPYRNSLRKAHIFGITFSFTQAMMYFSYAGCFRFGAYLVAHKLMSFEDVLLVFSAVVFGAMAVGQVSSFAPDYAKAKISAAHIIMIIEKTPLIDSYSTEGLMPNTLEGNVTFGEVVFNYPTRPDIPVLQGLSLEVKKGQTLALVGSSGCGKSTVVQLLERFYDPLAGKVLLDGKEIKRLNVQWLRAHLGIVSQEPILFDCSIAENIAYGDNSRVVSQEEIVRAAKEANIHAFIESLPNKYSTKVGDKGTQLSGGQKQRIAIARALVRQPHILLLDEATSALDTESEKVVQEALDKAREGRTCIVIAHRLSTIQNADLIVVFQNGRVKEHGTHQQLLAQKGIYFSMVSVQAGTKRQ
Where a SMILES comes first, the peptide text is derived from it. [ ]: non-standard residue; d: D form. MeBmt = C/C=C/C[C@@H](C)[C@@H](O)[C@H](NC)C(=O)O; Val(2S-OH) = CC(C)[C@](N)(O)C(=O)O; NMeL = CN[C@@H](CC(C)C)C(=O)O; NMeV = CN[C@H](C(=O)O)C(C)C; Sar = CNCC(=O)O
On this scale, pIC50 is minus log10 of a concentration expressed in M (mol/L).

Solved entries (count: 2):
1. C/C=C/C[C@@H](C)C[C@H]1C(=O)N[C@@H](CC)C(=O)N(C)CC(=O)N(C)[C@@H](CC(C)C)C(=O)N[C@@H](C(C)C)C(=O)N(C)[C@@H](CC(C)C)C(=O)N[C@@H](C)C(=O)N[C@H](C)C(=O)N(C)[C@@H](CC(C)C)C(=O)N(C)[C@@H](CC(C)C)C(=O)N(C)[C@@H](C(C)C)C(=O)N1C : 5.66
2. C/C=C/C[C@@H](C)[C@@H](O)[C@H]1C(=O)N[C@@H]([C@@H](C)O)C(=O)N(C)CC(=O)N(C)[C@@H](CC(C)C)C(=O)N[C@@H](CC(C)C)C(=O)N(C)[C@@H](CC(C)C)C(=O)N[C@@H](C)C(=O)N[C@](O)(C(C)C)C(=O)N(C)[C@@H](CC(C)C)C(=O)N[C@@H](CC(C)C)C(=O)N(C)[C@@H](C(C)C)C(=O)N1C (cyclo(A[Val(2S-OH)][NMeL]L[NMeV][MeBmt]T[Sar][NMeL]L[NMeL])) : 5.80

Q: What pIC50 value was documented for this molecule, "CCCCCC[C@H]1C(=O)N[C@@H](CC)C(=O)N(C)CC(=O)N(C)[C@@H](CC(C)C)C(=O)N[C@@H](C(C)C)C(=O)N(C)[C@@H](CC(C)C)C(=O)N[C@@H](C)C(=O)N[C@H](C)C(=O)N(C)[C@@H](CC(C)C)C(=O)N(C)[C@@H](CC(C)C)C(=O)N(C)[C@@H](C(C)C)C(=O)N1C" ?
Ans: 5.40
